# test_target: Neu5Ac(a2-3)Gal(b1-4)[Fuc(a1-3)]GlcNAc(b1-2)Man
# assay_overview: glycan array binding signal (z-score within array); higher = stronger binding
# experimental_conditions: glycan notation: IUPAC condensed, linker removed
Shown is part of a subset that was picked to be rich in the strongest signals.
Collected glycan array binding signal (z-score) values appear next to each entry.
Reply with just the number.

>>> reading("F17-L (Escherichia coli) (protein) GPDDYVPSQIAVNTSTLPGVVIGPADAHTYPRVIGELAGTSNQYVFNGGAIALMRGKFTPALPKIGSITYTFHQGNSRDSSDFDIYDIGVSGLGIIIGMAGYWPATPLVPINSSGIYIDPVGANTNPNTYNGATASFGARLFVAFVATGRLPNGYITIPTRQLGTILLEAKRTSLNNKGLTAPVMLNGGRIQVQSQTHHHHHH")
-0.12
>>> reading("SJCP1531 (Schistosoma japonicum) (protein) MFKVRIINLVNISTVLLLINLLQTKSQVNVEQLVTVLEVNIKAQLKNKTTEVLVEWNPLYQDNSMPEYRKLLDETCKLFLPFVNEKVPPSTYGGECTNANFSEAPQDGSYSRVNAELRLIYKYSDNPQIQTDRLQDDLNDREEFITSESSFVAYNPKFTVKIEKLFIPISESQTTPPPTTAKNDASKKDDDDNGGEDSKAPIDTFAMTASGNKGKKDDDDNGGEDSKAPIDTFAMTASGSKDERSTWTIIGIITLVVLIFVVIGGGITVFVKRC")
-0.84

Now consider the entry below.
In: Looking for the measured glycan array binding signal (z-score) of SSR1 (Sclerotium rolfsii), A0A0M3KL30 (protein) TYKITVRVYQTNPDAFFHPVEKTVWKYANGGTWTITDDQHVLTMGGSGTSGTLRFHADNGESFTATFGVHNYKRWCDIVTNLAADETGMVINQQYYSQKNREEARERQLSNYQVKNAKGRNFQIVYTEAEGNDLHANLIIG , can you help?
Out: -0.374
